# Tested on: biomarker (antibody) in serum samples from patients with symptoms of tuberculosis
# Type: binding, human
# Run conditions: serum sample 6 TB+
Marks after values point to notes of the source that are not given here.
Provide the reported ELISA absorbance at 492 nm of each item.

input: Please give the measured ELISA absorbance at 492 nm for this molecule: CCCCCCCCCCCCCCCCCCCCCCCC[C@@H](C(=O)OC[C@H]1O[C@H](OC)[C@@H](O)[C@@H]1O)[C@H](O)CCCCCCCCCCC[C@H]1CC1CCCCCCCCCCCCCC[C@H]1C[C@H]1CCCCCCCCCCCCCCCCCCCC (some centres unmarked) [Antigen F]
output: 1.39*

input: Please give the measured ELISA absorbance at 492 nm for this molecule: CCCCCCCCCCCCCCCCCCCCCC[C@@H](C(=O)OC[C@H]1O[C@H](OC)[C@@H](O)[C@@H]1O)[C@H](O)CCCCCCCCCCCCCCC[C@@H]1C[C@@H]1CCCCCCCCCCCCCCCCCCC(=O)C(C)CCCCCCCCCCCCCCCCCC (some centres unmarked) [Antigen C]
output: 0.39*

input: Please give the measured ELISA absorbance at 492 nm for this molecule: CCCCCCCCCCCCCCCCCCCCCCCC[C@@H](C(=O)OC[C@H]1O[C@H](OC)[C@@H](O)[C@@H]1O)[C@H](O)CCCCCCCCCCCCCCCCC[C@@H]1C[C@@H]1CCCCCCCCCCCCCCCC[C@@H](OC)[C@@H](C)CCCCCCCCCCCCCCCCCC [Antigen B]
output: 0.97*

input: Please give the measured ELISA absorbance at 492 nm for this molecule: CCCCCCCCCCCCCCCCCCCCCC[C@@H](C(=O)OC[C@H]1O[C@H](OC)[C@@H](O)[C@@H]1O)[C@H](O)CCCCCCCCCCCCCCCCC[C@H]1C[C@H]1CCCCCCCCCCCCCCCC[C@@H](OC)[C@@H](C)CCCCCCCCCCCCCCCCCC [Antigen E]
output: 0.54*

input: Please give the measured ELISA absorbance at 492 nm for this molecule: CCCCCCCCCCCCCCCCCCCCCC[C@@H](C(=O)OC[C@H]1O[C@H](OC)[C@@H](O)[C@@H]1O)[C@H](O)CCCCCCCCCCCCCCCCC[C@@H]1C[C@@H]1CCCCCCCCCCCCCCCC[C@@H](OC)[C@@H](C)CCCCCCCCCCCCCCCCCC [Antigen A]
output: 0.28*
